Provide the recorded ELISA OD-MCP-1 for the entries that follow.
# SYSTEM: T1, human monocyte chemo-attractant protein-1 (MCP-1) (human, UniProt P13500 24-99)
# T1 construct: 76-residue recombinant protein from E. coli, bought (PeproTech); also called hMCP-1(MCAF); human MCP-1
# T1 sequence (P13500 24-99): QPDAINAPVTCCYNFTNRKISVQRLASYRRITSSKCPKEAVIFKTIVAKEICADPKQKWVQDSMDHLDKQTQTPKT
# PROTOCOL: ELISA, hybridoma supernatant on coated MCP-1
Respond numerically; units are OD450 and should not be typed.

Query anti-MCP-1 mAb 1.6.1 (antibody, V domains shown) VH: QVQLVQSGAEVKKPGASVKVSCKVSGYTLTELSMHWVRQAPGKGLEWMGGFDPEDGETIYAQKFQGRVTMTEDTSTDTAYMELSSLRSEDTAVYYCATWYSGIYLAFDIWGQGTMVTVSS VL: EIVLTQSPDFQSVTPKEKVTITCRASQSIGSSLHWYQQKPDQSPKLLIKYASQSFSGVPSRFSGSGSGTDFTLTINSLEAEDAATYYCHQSSSLPHTFGGGTKVEIKR yields ELISA OD-MCP-1 of 3.92

Query anti-MCP-1 mAb 1.8.1 (antibody, V domains shown) VH: QVQLVQSGAEVKKPGASVKVSCKVSGHIFTELSIHWVRQAPGKGLEWMGGFDPEDGETIYAQKFQGRVTMTEDTSTDTVYMELSSLRSEDTAVYYCATNDFWSGYFDYWGQGTLVTVSS VL: DIVMTQSPGSLAVSLGERATINCKSSQSILFRSNNKNYLTWYQQKPGQPPKLLIYWASIRESGVPDRFSGSGSGSNFTLTITSLQAEDVAIYYCQQYYSSPWTFGQGTKVEIKR yields ELISA OD-MCP-1 of 3.47

Query anti-MCP-1 mAb 1.13.1 (antibody, V domains shown) VH: QVQLVQSGAEVKKPGASVKVSCKVSGHTLTELSMHWVRQAPGKGLEWMGGFDPEDDETIYAQKFQDRVTMTEDTSTDTAYMELSSLRSEDTAVYYCATNDFWSGYFDCWGQGTLVTVSS VL: DIVLTQSPDSLAVCLGERATINCKSSQSVLYSPNNKNFLVWYQQRPGQPPKLLIYWASTRESGVPDRFSGSGSGTDFTLTISSLQAEDVAVYYCQQYYSSPWTFGQGTKVEIKR yields ELISA OD-MCP-1 of 4

Query anti-MCP-1 mAb 1.1.1 (antibody, human IgG2, kappa, V domains shown) VH: QVQLVQSGAEVKKPGASVKVSCKVSGYTLTELSMHWVRQAPGNGLEWMGGFDPEDGETIYAQRFQGRVVMTEDPSTDTAYMELSSLRSEDTAVYYCATNEFWSGYFDYWGQGTLVTVSS VL: DIVMTQSPDSLAMSLGERATINCKSSQSVLYSSNNKNYLVWYQQKPGQPPKLLIYWASIRESGVPDRFSSSGSETDFTLTISSLQAEDVAVYYCQQYFSSPWTFGQGTKVEIKR yields ELISA OD-MCP-1 of 3.64

Query anti-MCP-1 mAb 5.1 (antibody, V domains shown) VH: EQSGGGVVQPGRSLRLSCAASGFTFSSYGMHWVRQAPGKGLEWVAVIWYDGNNKYYADSVKGRFTISRDTSKNTLYLQMNSLRAEDTAVYYCARDSSSYYYYGMDVWGQGTTVTVSS VL: NFMLTQPHSVSESPGKTVTISCTRSSGSIASNYVQWFQQRPGSSPTTVIYEDDQRPSGVPDRFCGSIDSSSNSASLTISGLRTEDEADYYCQSYDSSNHVVFGGGTKLTVLG yields ELISA OD-MCP-1 of 4
